# measured_target: ATP-dependent translocase ABCB1 (Homo sapiens)
# Sequence (P08183 whole entry): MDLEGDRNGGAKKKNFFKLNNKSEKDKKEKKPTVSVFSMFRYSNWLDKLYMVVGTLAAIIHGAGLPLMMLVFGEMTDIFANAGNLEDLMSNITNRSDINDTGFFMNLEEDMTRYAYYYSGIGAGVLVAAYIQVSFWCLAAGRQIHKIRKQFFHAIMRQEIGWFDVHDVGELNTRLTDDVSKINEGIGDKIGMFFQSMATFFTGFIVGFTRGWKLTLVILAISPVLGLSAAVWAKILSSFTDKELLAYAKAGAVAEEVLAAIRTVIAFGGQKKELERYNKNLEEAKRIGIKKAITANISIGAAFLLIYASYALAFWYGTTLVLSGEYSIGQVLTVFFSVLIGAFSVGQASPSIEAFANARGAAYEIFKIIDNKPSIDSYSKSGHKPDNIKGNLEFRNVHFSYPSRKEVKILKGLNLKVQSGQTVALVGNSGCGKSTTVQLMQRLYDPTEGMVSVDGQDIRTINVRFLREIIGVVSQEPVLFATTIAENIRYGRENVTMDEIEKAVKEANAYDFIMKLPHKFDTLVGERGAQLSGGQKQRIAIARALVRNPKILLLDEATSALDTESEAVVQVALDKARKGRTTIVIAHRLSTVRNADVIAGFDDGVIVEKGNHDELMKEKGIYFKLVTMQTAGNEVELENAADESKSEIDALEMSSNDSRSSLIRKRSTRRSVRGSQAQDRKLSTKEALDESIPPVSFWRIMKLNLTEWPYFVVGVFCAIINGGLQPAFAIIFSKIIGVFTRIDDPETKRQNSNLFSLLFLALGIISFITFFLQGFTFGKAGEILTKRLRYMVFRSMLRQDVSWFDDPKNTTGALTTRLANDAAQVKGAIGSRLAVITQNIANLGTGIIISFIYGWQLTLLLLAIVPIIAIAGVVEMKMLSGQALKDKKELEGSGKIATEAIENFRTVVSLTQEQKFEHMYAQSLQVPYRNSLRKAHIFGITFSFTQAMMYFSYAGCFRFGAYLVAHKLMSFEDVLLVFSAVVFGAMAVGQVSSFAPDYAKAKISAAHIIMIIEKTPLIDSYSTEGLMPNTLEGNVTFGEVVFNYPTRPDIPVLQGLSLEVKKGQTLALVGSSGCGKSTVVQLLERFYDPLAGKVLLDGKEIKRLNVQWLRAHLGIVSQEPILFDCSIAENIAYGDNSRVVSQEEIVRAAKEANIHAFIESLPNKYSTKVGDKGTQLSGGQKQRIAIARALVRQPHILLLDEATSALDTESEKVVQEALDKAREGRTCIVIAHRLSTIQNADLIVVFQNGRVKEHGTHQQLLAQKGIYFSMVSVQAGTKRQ
# measurement_notes: Inhibition of ABCB1 (unknown origin) expressed in Flp-In-293 cells assessed as increase in calcein-AM uptake at 5 uM preincubated for 30 mins followed by calcein-AM addition measured after 30 mins by fluorescence spectrometric method relative to control
# Assay type: cell-based
# experimental_setup: 0.5 h
parameter_measured: fold change (FC)

mol_smiles	number
COc1ccc(-c2cc(OCc3cccc(Cl)c3)c3c(-c4cccs4)c(N)oc3c2)cc1	0.6
COc1ccc(-c2cc(OC(C)=O)c3c(-c4cccs4)c(N)oc3c2)cc1OC	4.35

P: COc1ccc(-c2cc(OCc3ccncc3)c3c(-c4cccs4)c(N)oc3c2)cc1OC
Q: COc1ccc(-c2cc(OC(C)=O)c3c(-c4c(Cl)cccc4Cl)c(N)oc3c2)cc1
R: COc1ccc(-c2cc(OCc3ccc([N+](=O)[O-])cc3)c3c(-c4cccs4)c(N)oc3c2)cc1
[Q] // ranking: key=fold change (FC), reverse=True I would appreciate it if you listed the labels in the requested order.
[A] P, Q, R
